Test system: anesthetized rats infused with hypotonic solution
measurement description: Antidiuretic effect on diuresis induced by hypotonic solution in anesthetized rats
Format: in vivo, rat
condition details: 10 μg/kg intravenously; period until decreasing rate of urine volume restored to −20%
endpoint name: Duration tine
Hi, when you answer, please include the unit after the number. Thanks!

// below: answered compounds
structure string | assayed system | Duration tine
C[C@@H]1CN(C(=O)c2ccc(-n3cccn3)cc2Cl)c2ccccc2CN1C(=O)NCC(=O)O | anesthetized rats infused with hypotonic solution | 60 min
C[C@@H]1CN(C(=O)c2ccc(-n3cccn3)cc2Cl)c2ccccc2CN1C(=O)NCC(=O)N1CCCC1 | anesthetized rats infused with hypotonic solution | 90 min
C[C@@H]1CN(C(=O)c2ccc(-n3cccn3)cc2Cl)c2ccccc2CN1C(=O)NCC(N)=O | anesthetized rats infused with hypotonic solution | 50 min

Turning now to a further compound:
Requested field: Duration tine. Item: C[C@@H]1CN(C(=O)c2ccc(-n3cccn3)cc2Cl)c2ccccc2CN1C(=O)NCC(=O)N(C)C
80 min

---

// endpoint Ki / system human V2 receptor (Homo sapiens)
Your answer should be a plain number; it is taken to be in nM.

// below: answered compounds
compound | measured number
C[C@@H]1CN(C(=O)c2ccc(-n3cccn3)cc2Cl)c2ccccc2CN1C(=O)NCC(=O)O [Example 3-1] | 19.7
CNC(=O)CNC(=O)N1Cc2ccccc2N(C(=O)c2ccc(-n3cccn3)cc2Cl)C[C@H]1C [Example 5-3] | 14
C[C@@H]1CN(C(=O)c2ccc(N3CCCC3)cc2Cl)c2ccccc2CN1C(=O)NCC(N)=O [Example 5-18] | 27.8

Turning now to a further compound:
What value of Ki on human V2 receptor (Homo sapiens) does C[C@@H]1CN(C(=O)c2ccc(-n3cccn3)cc2Cl)c2ccccc2CN1C(=O)NCC(N)=O [Example 5-2] have?
35.5

---

assayed system: UniProt P30518
measurement description: Study to confirm the agonism of human V2 receptor (intracellular Ca2+, HEK293 cells coexpressing human V2 receptor and Gqs chimeric protein)
Type: cell-based
Set-up: expressed in transfected cells; host or cells: HEK293 cells (American Type Culture Collection), transient transfection with pCI-neo/hV2 and pLEC-Gqs5
condition details: maximum response relative to AVP = 1.00
Rule: I A (intrinsic activity) of 0.7 or more gives True; anything lower gives False.

Would you please look over these solved cases?
structure string | classification
C[C@@H]1CN(C(=O)c2ccc(N3CCCC3)cc2Cl)c2ccccc2CN1C(=O)NCC(N)=O | True
C[C@@H]1CN(C(=O)c2ccc(-n3cccn3)cc2Cl)c2ccccc2CN1C(=O)NCCO | True
C[C@@H]1CN(C(=O)c2ccc(-n3cccn3)cc2C(F)(F)F)c2ccccc2CN1C(=O)NCC(N)=O | True
C[C@@H]1CN(C(=O)c2ccc(-n3cccn3)cc2Cl)c2ccccc2CN1C(=O)NCC(=O)N1CCCC1 | True
C[C@@H]1CN(C(=O)c2ccc(-n3cccn3)cc2Cl)c2ccccc2CN1C(=O)NCC(=O)O | False
C[C@@H]1CN(C(=O)c2ccc(-n3cccn3)cc2Cl)c2ccc(F)cc2CN1C(=O)NCC(N)=O | False
C[C@@H]1CN(C(=O)c2ccc(OCCO)cc2Cl)c2ccccc2CN1C(=O)NCC(=O)O | True
C[C@@H]1CN(C(=O)c2ccc(-n3cccn3)cc2Cl)c2ccccc2CN1C(=O)NCC(=O)N1CCCCC1 | True
CNC(=O)CNC(=O)N1Cc2ccccc2N(C(=O)c2ccc(-n3cccn3)cc2Cl)C[C@H]1C | False
Cc1cc(-n2cccn2)ccc1C(=O)N1C[C@@H](C)N(C(=O)NCC(N)=O)Cc2ccccc21 | True

Now turn to the next compound.
Check this compound for I A (intrinsic activity) at or above 0.7: C[C@@H]1CN(C(=O)c2ccc(-n3cccn3)cc2Cl)c2ccccc2CN1C(=O)NCC(=O)N(C)C
False

---

Catalogue of EC50 values
assayed system: UniProtKB P30518
measurement description: Study to confirm the agonism of human V2 receptor (intracellular Ca2+, HEK293 cells coexpressing human V2 receptor and Gqs chimeric protein)
Format: cell-based
Set-up: expressed in transfected cells; host or cells: HEK293 cells (American Type Culture Collection), transient transfection with pCI-neo/hV2 and pLEC-Gqs5
condition details: intracellular Ca2+ response, HEK293 cells coexpressing human V2 receptor and Gqs
Your answer should be a plain number; it is taken to be in nM.

// below: answered compounds
structure string | assayed system | measure unit | EC50
C[C@@H]1CN(C(=O)c2ccc(-n3cccn3)cc2Cl)c2ccccc2CN1C(=O)NCC(N)=O | UniProtKB P30518 | nM | 7.3
C[C@@H]1CN(C(=O)c2ccc(-n3cccn3)cc2Cl)c2ccc(F)cc2CN1C(=O)NCC(N)=O | UniProtKB P30518 | nM | 15.6
C[C@@H]1CN(C(=O)c2ccc(OCCO)cc2Cl)c2ccccc2CN1C(=O)NCC(=O)O | UniProtKB P30518 | nM | 15.4

What value of EC50 on UniProtKB P30518 does CNC(=O)CNC(=O)N1Cc2ccccc2N(C(=O)c2ccc(-n3cccn3)cc2Cl)C[C@H]1C have?
9.1

What value of EC50 on UniProtKB P30518 does C[C@@H]1CN(C(=O)c2ccc(-n3cccn3)cc2Cl)c2ccccc2CN1C(=O)NCC(=O)O have?
9.4

---

assayed system: human V2 receptor (Homo sapiens)
Sequence (P30518 whole entry): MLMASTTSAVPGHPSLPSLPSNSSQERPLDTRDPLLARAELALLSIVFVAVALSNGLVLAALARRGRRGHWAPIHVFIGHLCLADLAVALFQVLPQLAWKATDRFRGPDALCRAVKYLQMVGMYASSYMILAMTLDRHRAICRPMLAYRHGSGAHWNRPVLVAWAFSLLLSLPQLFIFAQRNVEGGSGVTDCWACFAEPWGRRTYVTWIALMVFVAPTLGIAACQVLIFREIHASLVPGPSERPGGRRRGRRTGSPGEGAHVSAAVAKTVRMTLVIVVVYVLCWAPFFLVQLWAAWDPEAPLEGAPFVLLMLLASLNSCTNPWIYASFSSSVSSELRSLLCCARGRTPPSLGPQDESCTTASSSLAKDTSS
measurement description: Study to confirm the agonism of human V2 receptor (intracellular Ca2+, HEK293 cells coexpressing human V2 receptor and Gqs chimeric protein)
condition details: intracellular Ca2+ response, HEK293 cells coexpressing human V2 receptor and Gqs
endpoint name: EC50 (nM)
Your answer should be a plain number; it is taken to be in nM.

Requested field: EC50. Item: C[C@@H]1CN(C(=O)c2ccc(-n3cccn3)cc2Cl)c2ccccc2CN1C(=O)NCC(=O)N1CCCCC1 [Example 5-6]
17.3

---

Catalogue of pEC50 values
assayed system: human V2 receptor (Homo sapiens)
measurement description: Study to confirm the agonism of human V2 receptor (intracellular Ca2+, HEK293 cells coexpressing human V2 receptor and Gqs chimeric protein)
Format: cell-based
Parameters: expressed in transfected cells; host or cells: HEK293 cells (American Type Culture Collection), transient transfection with pCI-neo/hV2 and pLEC-Gqs5
condition details: intracellular Ca2+ response, HEK293 cells coexpressing human V2 receptor and Gqs
# pEC50 is unitless: minus log10 of the molar concentration; print number only

structure string | measured number
C[C@@H]1CN(C(=O)c2ccc(-n3cccn3)cc2Cl)c2ccccc2CN1C(=O)NCCO | 7.80
C[C@@H]1CN(C(=O)c2ccc(-n3cccn3)cc2Cl)c2ccccc2CN1C(=O)NCC(=O)N(C)C | 7.56

Turning now to a further compound:
What value of pEC50 on human V2 receptor (Homo sapiens) does C[C@@H]1CN(C(=O)c2ccc(-n3cccn3)cc2F)c2ccccc2CN1C(=O)NCC(N)=O have?
8.04

---

Catalogue of pEC50 values
assayed system: human V2 receptor (Homo sapiens)
measurement description: Study to confirm the agonism of human V2 receptor (intracellular Ca2+, HEK293 cells coexpressing human V2 receptor and Gqs chimeric protein)
condition details: intracellular Ca2+ response, HEK293 cells coexpressing human V2 receptor and Gqs
# pEC50 is unitless: minus log10 of the molar concentration; print number only

structure string | pEC50
C[C@@H]1CN(C(=O)c2ccc(-n3cccn3)cc2Cl)c2ccccc2CN1C(=O)NCC(=O)N1CCCC1 | 7.60
Cc1cc(-n2cccn2)ccc1C(=O)N1C[C@@H](C)N(C(=O)NCC(N)=O)Cc2ccccc21 | 8.19
C[C@@H]1CN(C(=O)c2ccc(-n3cccn3)cc2C(F)(F)F)c2ccccc2CN1C(=O)NCC(N)=O | 8.07

Turning now to a further compound:
What value of pEC50 on human V2 receptor (Homo sapiens) does C[C@@H]1CN(C(=O)c2ccc(N3CCCC3)cc2Cl)c2ccccc2CN1C(=O)NCC(N)=O have?
8.66
